Value source: BindingDB's records for doi:10.1021/acs.jmedchem.9b01547

target: Utrophin (Homo sapiens); test: Activation of human utrophin-1 in mouse mdx myoblasts by H2K-mdx utrnA-luc assay
REPORTED_PROPERTY: EC50 (nM)

MOLECULE	REPORTED_PROPERTY	DISPLAY_UNIT	ENDPOINT_RESULT
CCS(=O)(=O)c1ccc2oc(-c3ccc4ccccc4c3)nc2c1 [BMN 195]	EC50	nM	110

1: CCS(=O)(=O)c1ccc2oc(-c3ccc4c(c3)[C@@H](O)[C@H](O)C=C4)nc2c1
2: CCS(=O)(=O)c1ccc2oc(-c3ccc4c(c3)C=C[C@H](O)[C@H]4O)nc2c1
Which item exceeds the other in EC50, 1 or 2 ? Return value: the label identifying the chosen record.
2

* * *

molecular target: Utrophin (Homo sapiens, UniProt P46939); test: Activation of human utrophin-1 in iDMD cells by HTRF assay
Sequence (P46939 whole entry): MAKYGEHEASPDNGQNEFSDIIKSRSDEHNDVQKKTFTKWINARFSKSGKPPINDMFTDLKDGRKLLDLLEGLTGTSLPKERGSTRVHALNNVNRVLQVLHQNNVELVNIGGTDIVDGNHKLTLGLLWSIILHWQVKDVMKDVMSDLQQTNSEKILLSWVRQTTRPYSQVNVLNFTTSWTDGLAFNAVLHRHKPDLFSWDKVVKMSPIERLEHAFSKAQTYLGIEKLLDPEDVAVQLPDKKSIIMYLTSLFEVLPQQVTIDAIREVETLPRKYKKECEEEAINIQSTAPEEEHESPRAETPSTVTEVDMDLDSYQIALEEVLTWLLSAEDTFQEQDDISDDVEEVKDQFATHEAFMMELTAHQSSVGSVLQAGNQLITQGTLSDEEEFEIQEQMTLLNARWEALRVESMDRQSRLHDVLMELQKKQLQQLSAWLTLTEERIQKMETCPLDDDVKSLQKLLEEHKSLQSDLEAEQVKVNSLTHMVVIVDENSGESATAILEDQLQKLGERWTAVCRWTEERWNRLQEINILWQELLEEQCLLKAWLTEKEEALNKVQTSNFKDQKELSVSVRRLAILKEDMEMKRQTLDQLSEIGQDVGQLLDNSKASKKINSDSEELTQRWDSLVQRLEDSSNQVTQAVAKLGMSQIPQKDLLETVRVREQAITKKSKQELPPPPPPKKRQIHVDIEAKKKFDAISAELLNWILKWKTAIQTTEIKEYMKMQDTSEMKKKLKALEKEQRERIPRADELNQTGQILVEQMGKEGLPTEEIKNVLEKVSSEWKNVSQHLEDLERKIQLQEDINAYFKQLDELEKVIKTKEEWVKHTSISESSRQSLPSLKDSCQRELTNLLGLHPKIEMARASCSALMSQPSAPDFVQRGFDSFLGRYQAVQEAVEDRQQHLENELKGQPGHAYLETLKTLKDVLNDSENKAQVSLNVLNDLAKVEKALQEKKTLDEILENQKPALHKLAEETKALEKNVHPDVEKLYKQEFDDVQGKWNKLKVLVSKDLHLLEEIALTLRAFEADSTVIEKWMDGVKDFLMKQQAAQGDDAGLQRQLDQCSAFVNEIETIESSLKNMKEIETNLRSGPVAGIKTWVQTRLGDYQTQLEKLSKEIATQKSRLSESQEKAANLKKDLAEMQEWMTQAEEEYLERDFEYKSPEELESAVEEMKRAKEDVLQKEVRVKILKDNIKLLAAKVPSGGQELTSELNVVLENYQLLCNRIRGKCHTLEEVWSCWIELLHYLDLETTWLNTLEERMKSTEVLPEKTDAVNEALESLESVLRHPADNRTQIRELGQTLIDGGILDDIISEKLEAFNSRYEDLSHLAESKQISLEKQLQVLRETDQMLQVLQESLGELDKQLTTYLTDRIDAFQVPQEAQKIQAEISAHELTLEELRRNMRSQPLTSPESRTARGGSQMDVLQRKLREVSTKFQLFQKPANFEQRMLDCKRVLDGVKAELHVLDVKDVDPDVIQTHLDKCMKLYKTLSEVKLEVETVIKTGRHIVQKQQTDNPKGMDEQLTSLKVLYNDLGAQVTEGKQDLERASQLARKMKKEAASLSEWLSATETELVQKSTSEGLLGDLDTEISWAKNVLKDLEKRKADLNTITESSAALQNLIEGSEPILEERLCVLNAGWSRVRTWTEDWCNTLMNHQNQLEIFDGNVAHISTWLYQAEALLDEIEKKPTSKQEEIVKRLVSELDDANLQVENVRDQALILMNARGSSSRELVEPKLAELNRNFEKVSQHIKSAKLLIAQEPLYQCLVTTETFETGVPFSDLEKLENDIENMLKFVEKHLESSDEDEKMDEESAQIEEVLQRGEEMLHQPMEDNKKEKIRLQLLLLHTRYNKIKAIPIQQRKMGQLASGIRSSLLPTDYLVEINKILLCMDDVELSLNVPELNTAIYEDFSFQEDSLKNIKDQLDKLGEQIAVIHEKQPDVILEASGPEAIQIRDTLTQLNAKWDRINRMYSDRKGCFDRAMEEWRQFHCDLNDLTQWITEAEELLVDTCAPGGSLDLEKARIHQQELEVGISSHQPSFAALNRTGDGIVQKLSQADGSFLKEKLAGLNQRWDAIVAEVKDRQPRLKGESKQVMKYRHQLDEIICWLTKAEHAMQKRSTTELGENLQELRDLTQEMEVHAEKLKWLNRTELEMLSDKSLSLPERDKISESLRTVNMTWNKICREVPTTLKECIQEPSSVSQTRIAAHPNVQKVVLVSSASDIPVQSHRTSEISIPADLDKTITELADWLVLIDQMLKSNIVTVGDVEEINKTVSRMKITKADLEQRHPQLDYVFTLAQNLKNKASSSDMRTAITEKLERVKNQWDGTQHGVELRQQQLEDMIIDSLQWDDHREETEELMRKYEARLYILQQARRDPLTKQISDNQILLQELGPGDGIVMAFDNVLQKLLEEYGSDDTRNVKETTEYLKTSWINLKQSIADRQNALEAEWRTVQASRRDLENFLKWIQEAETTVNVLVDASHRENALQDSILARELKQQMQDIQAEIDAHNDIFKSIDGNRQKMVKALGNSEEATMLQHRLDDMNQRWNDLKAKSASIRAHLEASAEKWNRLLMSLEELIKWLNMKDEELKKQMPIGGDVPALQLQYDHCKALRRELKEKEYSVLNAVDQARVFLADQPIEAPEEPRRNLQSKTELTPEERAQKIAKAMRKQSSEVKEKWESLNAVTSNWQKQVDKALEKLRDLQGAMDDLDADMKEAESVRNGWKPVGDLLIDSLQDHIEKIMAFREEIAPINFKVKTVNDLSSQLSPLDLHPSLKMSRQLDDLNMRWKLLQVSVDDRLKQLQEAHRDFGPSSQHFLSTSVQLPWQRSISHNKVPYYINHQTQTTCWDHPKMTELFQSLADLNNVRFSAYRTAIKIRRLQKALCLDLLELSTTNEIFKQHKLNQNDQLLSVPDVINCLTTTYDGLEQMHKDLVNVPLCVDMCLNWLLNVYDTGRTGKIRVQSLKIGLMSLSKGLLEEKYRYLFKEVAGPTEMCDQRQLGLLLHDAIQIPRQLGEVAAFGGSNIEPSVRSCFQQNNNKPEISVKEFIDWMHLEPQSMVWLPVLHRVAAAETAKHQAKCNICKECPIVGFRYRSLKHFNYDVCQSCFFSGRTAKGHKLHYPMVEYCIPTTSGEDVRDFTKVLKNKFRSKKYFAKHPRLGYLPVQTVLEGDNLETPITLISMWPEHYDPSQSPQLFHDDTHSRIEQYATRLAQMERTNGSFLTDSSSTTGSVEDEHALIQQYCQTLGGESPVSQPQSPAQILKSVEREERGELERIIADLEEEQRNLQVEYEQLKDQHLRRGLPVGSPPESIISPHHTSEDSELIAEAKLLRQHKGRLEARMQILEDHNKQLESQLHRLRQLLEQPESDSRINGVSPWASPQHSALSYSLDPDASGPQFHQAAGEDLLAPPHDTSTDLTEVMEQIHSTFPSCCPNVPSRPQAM
pEC50: −log10 of the molar value.
REPORTED_PROPERTY: pEC50

1: CCS(=O)(=O)c1ccc2oc(-c3ccc4c(c3)[C@@H](O)[C@H](O)C=C4)nc2c1
2: CCS(=O)(=O)c1ccc2oc(-c3ccc4ccccc4c3)nc2c1
// compare measured pEC50, left 1 , right 2 , return larger // return label of chosen record
2
